Experiment: NCI Yeast Anticancer Drug Screen. Data for the mec2-1 strain (AID 157)
Details: S. cerevisiae mec2-1 strain, at 50.0 µM
Method: Growth inhibition of yeast strains with defined genetic alterations is measured as a screen for potential anti-cancer activity. Selected strains with alterations in DNA damage repair or cell cycle control were exposed to compounds and growth inhibition was measured relative to vehicle treated controls. The strain used in this assay is mec2-1
The panel holds about 79,000 compounds, 15% with a hit somewhere; the sample as a whole holds those more often. The source made the active and inactive calls. Cut-off read from the data, not from the text of the source: active = growth inhibition above about 70%; inactive = the rest. Where a SMILES comes first, the peptide text is derived from it. [ ]: non-standard residue; d: D form. ξ: configuration not given here. ξP = O=C(O)C1CCCN1
Labels: true (active), false (inactive)

[
  {
    "molecule": "CCOC(=O)c1c[nH]n(Cc2ccccc2)c1=O",
    "category.label": "false"
  },
  {
    "molecule": "CN(C)CC(Cc1ccccc1)c1ccccc1 (stereo not drawn)",
    "category.label": "false"
  },
  {
    "molecule": "N#CC1(c2nc3ccccc3o2)C(=O)C(=O)N(C2C3CC4CC(C3)CC2C4)C(=O)C1=O (stereo not drawn)",
    "category.label": "false"
  },
  {
    "molecule": "CC1=C(C(=O)Nc2c(C)cccc2C)C(c2ccccc2Cl)C(C(=O)Nc2c(C)cccc2C)=C(C)N1",
    "category.label": "false"
  },
  {
    "molecule": "Oc1ccccc1C=Nc1ccc(Cl)cn1",
    "category.label": "false"
  },
  {
    "molecule": "O=C(CN1CCCC1)Nc1ccc2c(c1)C1Oc3ccccc3CC1CO2 (stereo not drawn)",
    "category.label": "false"
  },
  {
    "molecule": "COc1cc(C(=O)CBr)c(OC)cc1C",
    "category.label": "false"
  },
  {
    "molecule": "COc1ccc(/C=C/[n+]2ccccc2)cc1OC",
    "category.label": "false"
  },
  {
    "molecule": "NCC(=O)N1CCCC1C(=O)NCC(=O)NCC(=O)O (stereo not drawn) (H-G[ξP]GG-OH)",
    "category.label": "false"
  },
  {
    "molecule": "O=C(O)CNCCO",
    "category.label": "false"
  },
  {
    "molecule": "c1ccc(Cc2[nH]nc(-c3ccccc3)c2N=Nc2ccccc2)cc1",
    "category.label": "false"
  },
  {
    "molecule": "CC(=O)C1CC(CCC2([N+](=O)[O-])CCC(C)(O)C(C(C)=O)C2)([N+](=O)[O-])CCC1(C)O (stereo not drawn)",
    "category.label": "false"
  },
  {
    "molecule": "CSc1cc2c(cc1[N+](=O)[O-])C(=O)c1cc(F)ccc1-2",
    "category.label": "false"
  },
  {
    "molecule": "ClC1CC/C=C\\CC/C=C/CCC1Cl (stereo not drawn)",
    "category.label": "false"
  },
  {
    "molecule": "O=C1c2ccc([N+](=O)[O-])cc2C(=O)N1CC(F)(F)F",
    "category.label": "false"
  },
  {
    "molecule": "COC(=O)[C@H](Cc1c[nH]c2ccccc12)NP(=O)(OCCC#N)OCC1OC(n2cc(C)c(=O)[nH]c2=O)CC1N=[N+]=[N-] (stereo partly drawn)",
    "category.label": "false"
  },
  {
    "molecule": "CC(=O)c1cccc(NC(=O)C(=O)C(C(=O)c2ccccc2F)C2OC(=O)c3ccccc32)c1 (stereo not drawn)",
    "category.label": "false"
  },
  {
    "molecule": "Cc1ccn2c(=O)c(CCBr)c(C)nc2c1",
    "category.label": "false"
  },
  {
    "molecule": "CC[O-].CC[O-].COc1ccc(C(=O)[CH-]C(C)=O)cc1OC.COc1ccc(C(=O)[CH-]C(C)=O)cc1OC.[Ti+4]",
    "category.label": "false"
  },
  {
    "molecule": "c1ccc2c(c1)N=C(NNC1=Nc3ccccc3SC1)CS2",
    "category.label": "false"
  },
  {
    "molecule": "Cn1c(=O)c2[nH]c(C(=O)O)nc2n(C)c1=O",
    "category.label": "false"
  },
  {
    "molecule": "N#C/C=C/c1cccc(Cl)c1",
    "category.label": "false"
  },
  {
    "molecule": "CN1CCCCC1C[CH2][Sn]([c]1ccccc1)([c]1ccccc1)[c]1ccccc1 (stereo not drawn)",
    "category.label": "true"
  }
]

* * *

assay: NCI Yeast Anticancer Drug Screen. Data for the cln2 rad14 strain (AID 165);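 note: 0% = growth equal to vehicle treated cultures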; settings: S. cerevisiae cln2 rad14 strain, at 50.0 µM, hits give high values
This is part of a sample that, as a whole, favours compounds with a hit. Of some 79,000 tested, about 15% had one in any assay. Calls of active or inactive are those of the source. Rule as the data show it: active = growth inhibition above about 70%; inactive = the rest.

[
  {
    "compound": "O=C1N=C2C=CC=CN2CC1O (configuration not stated)",
    "growth inhibition": "-13.2% (inactive)"
  },
  {
    "compound": "O=c1oc(Cl)cc2oc(=O)n(-c3ccccc3)c(=O)c12",
    "growth inhibition": "-3.15% (inactive)"
  },
  {
    "compound": "NCCSS(=O)(=O)CCN",
    "growth inhibition": "-18.4% (inactive)"
  },
  {
    "compound": "Cc1cc(Cl)c(=O)n(-c2ccccc2)n1",
    "growth inhibition": "-27.8% (inactive)"
  },
  {
    "compound": "COc1ccc(C2CC(=O)C(C(=O)OC3CCCCC3)C2c2ccc(OC)cc2)cc1 (configuration not stated)",
    "growth inhibition": "28.1% (inactive)"
  },
  {
    "compound": "CCOC(=O)Nc1n[nH]nc1Cl",
    "growth inhibition": "-20.9% (inactive)"
  },
  {
    "compound": "COC(=O)CCC(N)C(=O)O (configuration not stated)",
    "growth inhibition": "-10.3% (inactive)"
  }
]

* * *

test: NCI Yeast Anticancer Drug Screen. Data for the mlh1 rad18 strain (AID 175); settings: S. cerevisiae mlh1 rad18 strain growth inhibition; at 50.0 µM; hits give high values
About 79,000 compounds went through this panel and 15% of them were active in at least one assay; those are over-represented in the sample as a whole.
Classify as follows. Reported growth inhibition greater than or equal to 10%: True. Reported growth inhibition below: False.

[
  {
    "molecule": "COC(=O)c1c2c(cc3c1CC1(C3)Cc3ccc4c(c3C1=O)CCC4)CCC2 (stereo unspecified)",
    "category.label": "False"
  },
  {
    "molecule": "Cc1cc(Cc2cccc3ccccc23)nc2c1ccc1ccccc12",
    "category.label": "True"
  },
  {
    "molecule": "COc1cc(/C=C/C=C2\\CC(C)C/C(=C\\C=C\\c3ccc(O)c(OC)c3)C2=O)ccc1O (stereo unspecified)",
    "category.label": "False"
  },
  {
    "molecule": "CC(=O)Nc1ccc(Cc2ccc3[nH]c(=O)cc(C)c3c2)cc1",
    "category.label": "True"
  },
  {
    "molecule": "O=C1c2ccccc2C(=O)c2c1ccc1c2N=C(c2ccc(Br)cc2)CC(c2cccc3ccccc23)N1 (stereo unspecified)",
    "category.label": "False"
  },
  {
    "molecule": "O=C(COc1ccc(Cl)cc1)NC(CO)(CO)CO",
    "category.label": "True"
  },
  {
    "molecule": "N#CCc1ccc(C(C#N)C(=O)CCC(=O)C(C#N)c2ccc(CC#N)cc2)cc1 (stereo unspecified)",
    "category.label": "True"
  },
  {
    "molecule": "NS(=O)(=O)c1ncc(C(=O)N2CCN(Cc3ccccc3)CC2)[nH]1",
    "category.label": "False"
  },
  {
    "molecule": "O=C(c1ccccc1)c1ccncc1",
    "category.label": "False"
  },
  {
    "molecule": "COc1cc2c(cc1OC)C(c1ccc([N+](=O)[O-])c(C)c1)=NCC2",
    "category.label": "False"
  },
  {
    "molecule": "O=C1C(=O)N(C2CCCCC2)C(=S)N1C1CCCCC1",
    "category.label": "True"
  }
]

* * *

test: NCI Yeast Anticancer Drug Screen. Data for the cln2 rad14 strain (AID 165);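 note: 0% = growth equal to vehicle treated cultures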; details: S. cerevisiae cln2 rad14 strain, at 50.0 µM, hits give high values
Compounds without any hit were thinned out: in the full panel of roughly 79,000, 15% have a hit.

[
  {
    "molecule": "COc1cc2c(OC)cc1CSCc1sc(C)c(c1Br)CSC2",
    "growth inhibition [%]": -26.6
  },
  {
    "molecule": "O=C(Nc1cccc2c(NC(=O)N3CCCCC3)cccc12)N1CCCCC1",
    "growth inhibition [%]": 4.1
  },
  {
    "molecule": "Cc1cnc(Br)c(Br)c1",
    "growth inhibition [%]": 15.9
  },
  {
    "molecule": "COc1ccc(C2(C3NCCC4=C3CCCC4)CC2)cc1 (stereo not given)",
    "growth inhibition [%]": -4.1
  },
  {
    "molecule": "O=S=C(c1ccccc1)N1CCc2ccccc21",
    "growth inhibition [%]": 7.15
  },
  {
    "molecule": "Cc1ccc(S(=O)(=O)NC(=O)C#CCOC2CCCCO2)cc1 (stereo not given)",
    "growth inhibition [%]": 14.3
  },
  {
    "molecule": "C#CC[N+](CC)(CC)CC",
    "growth inhibition [%]": -84
  },
  {
    "molecule": "COC(=O)C(C(=O)c1ccccc1)C(C(=O)C(=O)Nc1ccc(OC)cc1OC)C(=O)C(=O)c1ccc(C)cc1 (stereo not given)",
    "growth inhibition [%]": -3.9
  },
  {
    "molecule": "O=C1NCC(c2ccccc2)(c2ccccc2)O1",
    "growth inhibition [%]": 11.8
  },
  {
    "molecule": "NC1=C(O)C(=O)C(c2cccc(O)c2)O1 (stereo not given)",
    "growth inhibition [%]": -5.05
  },
  {
    "molecule": "O=C(O)CCc1ccccc1C(=O)O",
    "growth inhibition [%]": -9.8
  },
  {
    "molecule": "COC1CC(NC(C)=O)C(OC(C)=O)C(C)O1 (stereo not given)",
    "growth inhibition [%]": -29.2
  },
  {
    "molecule": "CCOc1c(CNC(=O)CCl)cc(N)cc1CNC(=O)CCl",
    "growth inhibition [%]": 10.8
  },
  {
    "molecule": "O=C(N=Nc1c(O)[nH]c2ccccc12)C(=O)N=Nc1c(O)[nH]c2ccccc12",
    "growth inhibition [%]": -1.1
  },
  {
    "molecule": "Cc1cc2c(cc1Cl)SC(NNC(=O)c1ccncc1)=NS2(=O)=O",
    "growth inhibition [%]": -32.4
  },
  {
    "molecule": "CCC(C)C(C)/C(C)=N/Nc1ccc([N+](=O)[O-])cc1[N+](=O)[O-] (stereo not given)",
    "growth inhibition [%]": -34.9
  },
  {
    "molecule": "O=C1OC(C(O)C(O)C(O)CO)C(O)C1O (stereo not given)",
    "growth inhibition [%]": -40.2
  },
  {
    "molecule": "Fc1ccc(-c2nnc(-c3ccc4ccccc4c3)o2)cc1",
    "growth inhibition [%]": 12.2
  },
  {
    "molecule": "OCCCNc1nc2cc(Cl)ccc2o1",
    "growth inhibition [%]": -31.1
  },
  {
    "molecule": "c1ccc(-c2nc(-c3ccccc3)c(-c3ccccc3)[nH]2)cc1",
    "growth inhibition [%]": 11.2
  },
  {
    "molecule": "CN(C)CCCN1CCC2(CCC(C(C)(C)C)CC2)CC1",
    "growth inhibition [%]": -19.1
  },
  {
    "molecule": "O=C(O)CCc1nc2ccccc2[nH]1",
    "growth inhibition [%]": 39.1
  },
  {
    "molecule": "O=C1CN(/N=C/c2ccc(-c3ccc(F)cc3)o2)C(=O)N1",
    "growth inhibition [%]": -26.6
  },
  {
    "molecule": "c1ccc(C[P+]2(c3ccccc3)c3ccccc3-c3ccccc32)cc1",
    "growth inhibition [%]": 4.15
  },
  {
    "molecule": "CC1CCC2C(C)(C)CC3(C)CCC1C23O (stereo not given)",
    "growth inhibition [%]": 30.4
  }
]
